Reported self-cleavage by item:
B1: CPEB3 Ribozyme (parent)
chain: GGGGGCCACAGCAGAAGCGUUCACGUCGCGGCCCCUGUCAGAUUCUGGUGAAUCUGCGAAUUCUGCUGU

Variants of: B1
ASSAY_NAME: self-cleavage, relative activity (ratio to wild type); higher = more cleavage; co-transcriptional
PROPERTY_NAME: self-cleavage

>>> df
    variant_designation  experimental_value
 0             G5C C66A               0.202
 1            A16U U46G                0.78
 2             C9U U21A               0.932
 3             A8U U49C                1.02
 4            G47C C63G               0.891
 5            U43A U53C               0.795
 6            C32G G56A               0.354
 7            U21G G65A               0.255
 8             C6A U20G               0.161
 9            G41C C63U               0.685
10             G1U U26G              0.0529
11            A40C C57U               0.287
12            C33A G48A                0.95
13            U43G C63U               0.751
14             G2A C34G                0.03
15             C7A A60G               0.272
16            G47U G68C                1.01
17            A10U A59G               0.968
18              G1A G3U              0.0455
19            C35G G65A               0.357
20            A15C G19A               0.185
21            G47A C54U               0.972
22            U20C U53A               0.135
23             G3C U61C              0.0948
24             A8C U67G               0.975
25             G2A G41C              0.0676
26            U44G C63G               0.588
27             C7A C63A               0.149
28            G19C C39G               0.162
29            C39G G68U               0.988
30            U36C C39A               0.474
31            G28U G56U               0.137
32             C9G G30C               0.948
